Field: pEC50. Provide a value for each of the compounds that follow.
# Tgt: human APJ receptor (Homo sapiens, UniProt P35414)
# Construct: expressed in transfected cells; host or cells: HEK293
# Sequence (P35414 whole entry): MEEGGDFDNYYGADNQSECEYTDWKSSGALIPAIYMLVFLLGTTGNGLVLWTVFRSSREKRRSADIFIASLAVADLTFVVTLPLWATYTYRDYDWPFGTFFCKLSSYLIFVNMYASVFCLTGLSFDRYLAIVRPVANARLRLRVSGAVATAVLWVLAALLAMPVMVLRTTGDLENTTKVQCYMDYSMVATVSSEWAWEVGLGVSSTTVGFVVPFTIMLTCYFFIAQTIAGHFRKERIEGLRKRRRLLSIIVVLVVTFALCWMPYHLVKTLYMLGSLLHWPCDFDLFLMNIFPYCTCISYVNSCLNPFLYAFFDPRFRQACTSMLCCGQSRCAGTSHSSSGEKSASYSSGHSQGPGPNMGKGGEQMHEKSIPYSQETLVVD
# Measurement protocol: Intracellular cAMP Accumulation Assay (APJ hcAMP, HTRF)
# Format: cell-based
# Condition details: human APJ, cAMP accumulation; potency range class; read-out: hAPJ cAMP EC50 Potency range
pEC50: −log10 of the molar value.

Worked examples follow.
{"Compound": "COc1ccccc1C1CCN(C(=O)c2c(O)n(-c3c(OC)cccc3OC)c(-c3cncc(C)c3)nc2=O)C1 (single isomer, unassigned)", "pEC50": "8.00 to 11.00"}
{"Compound": "CCc1cccc(CC)c1-n1c(-c2ccn(CC(C)C)n2)nc(=O)c(C(=O)N2CC[C@@H](c3ccccc3)C2)c1O", "pEC50": "7.00 to 8.00"}
{"Compound": "COc1cccc(OC)c1-n1c(-c2cc(C)ccn2)nc(=O)c(C(=O)N2CCC(c3ccc(F)cc3F)C2)c1O (single isomer, unassigned)", "pEC50": "8.00 to 11.00"}
{"Compound": "COc1ccnc(-c2nc(=O)c(C(=O)N3CCC(c4c(F)cccc4F)C3)c(O)n2-c2c(OC)cccc2OC)c1 (single isomer, unassigned)", "pEC50": "8.00 to 11.00"}
{"Compound": "COc1cccc(OC)c1-n1c(-c2cncc(C)c2)nc(=O)c(C(=O)N2CCC(c3ccc(F)cc3)C2)c1O (single isomer, unassigned)", "pEC50": "8.00 to 11.00"}

Record pEC50 per entry; entries follow.
1. CCc1cccc(CC)c1-n1c(-c2nc(C)cs2)nc(=O)c(C(=O)N2CCC(c3ncc(Cl)cc3F)C2)c1O (single isomer, unassigned) [Example 312]
2. CCc1cccc(CC)c1-n1c(-c2ccn(CC(C)C)n2)nc(=O)c(C(=O)N2CCC(c3ccc(F)cn3)C2)c1O (single isomer, unassigned)
3. COc1cccc(OC)c1-n1c(-c2cncc(C)c2)nc(=O)c(C(=O)N2CCC(c3ccccc3F)C2)c1O (single isomer, unassigned)
4. CC[C@@H](c1ccccc1)n1c(-c2nc(C)cs2)nc(=O)c(C(=O)N2CCC(c3ncc(Cl)cc3F)C2)c1O (single isomer, unassigned)

1. 8.00 to 11.00
2. 8.00 to 11.00
3. 8.00 to 11.00
4. 8.00 to 11.00

Record pEC50 for all entries; do not skip any.
1. CCc1cccc(CC)c1-n1c(-c2cnn(CC)c2)nc(=O)c(C(=O)N2CCC(c3ncc(F)cc3F)C2)c1O (single isomer, unassigned)
2. COc1cccc(OC)c1-n1c(CC2CC2)nc(=O)c(C(=O)N2CCC(c3ccncc3)C2)c1O (single isomer, unassigned)
3. CCc1cccc(CC)c1-n1c(-c2ccn(CC)n2)nc(=O)c(C(=O)N2CCC(c3ncc(Cl)cc3F)C2)c1O (single isomer, unassigned)

1. 8.00 to 11.00
2. 7.00 to 8.00
3. 8.00 to 11.00

Reference source: patent US10590113B2
